# MEASUREMENT_TARGET: vascular angiotensin II receptors
# ASSAY_INFO: 125I-angiotensin II radioligand binding assay
# TEST_CONTEXT: particular fraction from rat mesenteric arteries, 80 pM 125I-angiotensin II, 1 hour at 25°C; concentration needed to displace 50% of the total specifically bound angiotensin II
MEASUREMENT_TYPE: IC50

Entry CCCCc1ncc(/C=C(\Cc2cccs2)C(=O)O)n1-c1ccc(C(=O)O)cc1 — recorded IC50 = ~250 nM
